In what follows, each item is paired with its log10 of Ki for Muscarinic acetylcholine receptor M1 (Homo sapiens, UniProt P11229).
Form field - Quantity: Ki; Unit: µM; Scale: log10

In the examples that follow, each entry is paired with its recorded log10 of Ki.
>>> value_reported("Cc1cc(N)cc(N2CCc3ccccc3C2)n1")
0.41
>>> value_reported("Nc1cc(N2CCc3ccccc3C2)nc2c1CCC2")
-0.29
>>> value_reported("Cc1cnc(N2CCc3ccccc3C2)cc1N")
-0.06
>>> value_reported("CCc1cc(N)cc(N2CCc3ccccc3C2)n1")
0.40
>>> value_reported("Cc1cc(NCCO)cc(N2CCc3ccccc3C2)n1")
0.58

Q: I'm curious: which log10 of Ki was measured for CN(C)c1ccnc(N2CCc3ccccc3C2)c1 tested on Muscarinic acetylcholine receptor M1 (Homo sapiens, UniProt P11229)?
Ans: -0.82
